# Test method notes: BSK_3C_SRB: Viability Assessment in the BioMAP Diversity Plus: 3C Assay (AID 2283023);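 also: cells read 24 h after compound dosing; fitted both ways against DMSO so a hit may be signal rise or drop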
# Experimental setup: primary human endothelial cells (HUVEC)
The source made the active and inactive calls. The calls were made as follows: active = hit-call score of the fitted dose curve at least 0.9, where 1 is the maximum; inactive = score below 0.9.
Select the correct class. Options are active, inactive and nothing else.

Past entries and their recorded results:
// return assay outcome for `CCOP(=S)(OCC)Oc1ccc([N+](=O)[O-])cc1`
inactive

// param item: `Cc1ccn2nc(S(=O)(=O)Nc3c(F)cccc3F)nc2n1` ; yields the recorded call
inactive

Tell me the assay call for `CCNc1nc(Cl)nc(NC(C)(C)C#N)n1` please.
inactive

For `COc1cc(OC)nc(Sc2cccc(Cl)c2C(=O)O)n1` , which call appears in the assay record?
inactive

How did this test come out for `CN1COCN(Cc2cnc(Cl)s2)C1=N[N+](=O)[O-]` ?
inactive

Then there is this compound:
Hi, do you know how `CCCCOC(=O)[C@@H](C)Oc1ccc(Oc2ccc(C#N)cc2F)cc1` came out in this test?
inactive

----------
# Test method notes: BSK_BE3C_SRB: Viability Assessment in the BioMAP Diversity Plus: BE3C Assay (AID 2283028);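 also: measured 24 h after chemical dosing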;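 as to AC50: fitted both ways so AC50 may mark signal gain or loss versus DMSO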
# Experimental setup: primary human bronchial epithelial cells
Activity calls are given as the source filed them. The calls were made as follows: active = hit-call score of the fitted dose curve at least 0.9, where 1 is the maximum; inactive = score below 0.9.
Measured attribute: AC50

Recorded results for 4 compounds are shown here.
// query AC50 value for entry CCCSP(=O)(OCC)Oc1ccc(Br)cc1Cl (configuration not stated)
15.4 µM (active)

What value of AC50 has been reported for the following compound? `CCOP(=S)(OCC)Oc1ccc([N+](=O)[O-])cc1`
21.5 µM (active)

Tell me the measured AC50 of `COP(=O)(OC)SCn1c(=O)oc2cc(Cl)cnc21` , please.
inactive

Record request: AC50 value, item `CCNc1nc(Cl)nc(NC(C)(C)C#N)n1`
inactive

New cases:
Record request: AC50 value, item `O=c1ccc(=O)[nH][nH]1`
inactive

# lookup: AC50 of `CCCOCC(=Nc1ccc(Cl)cc1C(F)(F)F)n1ccnc1`
20 µM (active)

Which AC50 is reported for this compound? `CN(C)NC(=O)CCC(=O)O`
inactive

----------
# Read-out: Glutamate-cysteine ligase regulatory (GCLM), GCLM (gene 2730)
# Test method notes: LTEA_HepaRG_GCLM: Life Technologies and Expression Analysis (LTEA) Assay for Glutamate-cysteine ligase regulatory (GCLM) using HepaRG (AID 2283500)
# Experimental setup: mRNA level, 48 h; actives raise or lower the signal
The source made the active and inactive calls. Rule for the calls: active = hit-call score of the fitted dose curve at least 0.9, where 1 is the maximum; inactive = score below 0.9.
Measured attribute: AC50

Consider the following illustrative entries.
Endpoint output: AC50 of `CCC(=O)Nc1ccc(Cl)c(Cl)c1` . Value?
50 µM (active)

Item `CCC(CC)Nc1c([N+](=O)[O-])cc(C)c(C)c1[N+](=O)[O-]` has what recorded AC50?
inactive

Any idea what its AC50 is? The compound is `CCOP(=S)(OCC)SCCSCC`
inactive

I'd like to know its AC50. The compound in question is `CCCCOC(=O)c1ccccc1C(=O)O`
inactive

Request the reported AC50 associated with `CSC1=N[C@@](C)(c2ccccc2)C(=O)N1Nc1ccccc1`
25 µM (active)

Next:
# get_value(readout='AC50', item= `CCOP(=S)(OCC)Oc1ccc([N+](=O)[O-])cc1` )
inactive

Tell me the measured AC50 of `Cc1ccn2nc(S(=O)(=O)Nc3c(F)cccc3F)nc2n1` , please.
inactive

So what's the measured AC50 for this one? `CN(C)NC(=O)CCC(=O)O`
inactive

# AC50 lookup, item `CCOP(=S)(OCC)Oc1cc(C)nc(C(C)C)n1`
inactive
